Data provenance: paper PMC5346138

Target: T1, SsoSSB (single-stranded DNA-binding protein) (Sulfolobus solfataricus, UniProt Q97W73 1-148)
T1 sequence: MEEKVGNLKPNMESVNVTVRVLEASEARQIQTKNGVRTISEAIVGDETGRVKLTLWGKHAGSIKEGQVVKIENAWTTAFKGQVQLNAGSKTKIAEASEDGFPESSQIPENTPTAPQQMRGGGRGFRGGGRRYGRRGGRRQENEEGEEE
Assay: fluorescence (PIFE); 10 nM RNA, 10 mM KCl; Hill 1.8 +/- 0.3; ITC: 20 mM MES pH 6.5, 100 mM K-glutamate, 1 mM MgCl2, 50 C; PIFE: 50 mM Tris-HCl pH 8.0, 10 mM KCl; smFRET: same buffer plus Trolox and oxygen scavenger, room
Conditions: protein: recombinant, label: 5' biotin, 3' Cy3
QUANTITY NAME: pKd
Just the number, please; pKd means minus log10 of the concentration in mol/L.

Provide only the value of recorded pKd for CCCCCCCCCCCC (ssRNA) [C12ssRNA]
8.38
